Test system: Pseudomonas aeruginosa
method.summary: Antibacterial activity against triABC deficient Pseudomonas aeruginosa PA406 by microdilution method
Assay type: functional
readout.name: MIC (µg/mL)
Answer format: numeric, µg/mL implied, no suffix.

Example cases with answers are listed next.
NC[C@@H]1O[C@H](O[C@H]2[C@@H](O)[C@H](O[C@@H]3[C@@H](O)[C@H](N)C[C@H](N)[C@H]3O[C@H]3O[C@H](CN)[C@@H](O)[C@H](O)[C@H]3N)O[C@@H]2CO)[C@H](N)[C@@H](O)[C@@H]1O [FRAMYCETIN] | 2
NCC[C@H](O)C(=O)N[C@@H]1C[C@H](N)[C@@H](O[C@H]2O[C@H](CN)[C@@H](O)[C@H](O)[C@H]2O)[C@H](O)[C@H]1O[C@H]1O[C@H](CO)[C@@H](O)[C@H](N)[C@H]1O [AMIKACIN] | 1
C=CCO[C@H]1O[C@H](CN)[C@@H](OCCCc2ccc3ccccc3c2)[C@H](OCCCc2ccc3ccccc3c2)[C@H]1N | 32
CCCCCCCCCO[C@@H]1[C@@H](N)[C@@H](OCC(O)CNCCCO)O[C@H](CN)[C@H]1OCCCCCCCCC (mixture of isomers) | 8
NC[C@H]1O[C@H](O[C@H]2[C@H](O)[C@@H](O)[C@H](N)C[C@@H]2N)[C@H](N)[C@@H](O)[C@@H]1O [NEAMINE] | 64

Prompt: Fill in MIC for record NC[C@H]1O[C@H](O[C@H]2[C@H](O)[C@@H](O)[C@H](N)C[C@@H]2N)[C@H](N)[C@@H](OCCCc2ccc3ccccc3c2)[C@@H]1OCCCc1ccc2ccccc2c1
Response: 4

---

method.summary: Cytotoxicity against mouse J774 cells assessed as cell viability at 10 uM after 24 hrs by MTT assay relative to control
Format: toxicity, cell-based
measurement.parameters: J774 cells, read-out: Activity
Overview of recorded viability at 24 h, 10 µM for various compounds
Report as a plain number; the unit % is understood.

NCC[C@H](O)C(=O)N[C@@H]1C[C@H](N)[C@@H](O[C@H]2O[C@H](CN)[C@@H](O)[C@H](O)[C@H]2O)[C@H](O)[C@H]1O[C@H]1O[C@H](CO)[C@@H](O)[C@H](N)[C@H]1O | 81.2
NC[C@H]1O[C@H](O[C@H]2[C@H](O)[C@@H](O)[C@H](N)C[C@@H]2N)[C@H](N)[C@@H](OCc2ccc3ccccc3c2)[C@@H]1OCc1ccc2ccccc2c1 | 79.1
NC[C@H]1O[C@H](O[C@H]2[C@H](O)[C@@H](O[C@H]3O[C@H](CO)[C@@H](O)[C@H](N)[C@H]3O)[C@H](N)C[C@@H]2N)[C@H](N)C[C@@H]1O | 99.7
CCCCCCCCCO[C@@H]1[C@@H](N)[C@@H](O[C@H]2[C@H](O)[C@@H](O)[C@H](N)C[C@@H]2N)O[C@H](CN)[C@H]1OCCCCCCCCC | 82.7

Let us examine a further case.
Prompt: Consider the compound CCCCCCCCCO[C@@H]1[C@@H](N)[C@@H](OCC(O)CNCCN)O[C@H](CN)[C@H]1OCCCCCCCCC (mixture of isomers) . State its measured viability at 24 h, 10 µM.
Response: 87.5

---

viability at 24 h, 10 µM values, listed per item
method.summary: Cytotoxicity against mouse J774 cells assessed as cell viability at 10 uM after 24 hrs by MTT assay relative to control
Type: toxicity, cell-based
measurement.parameters: J774 cells, read-out: Activity
Your answer is read as %, so omit the unit and give the number.

Some solved entries appear below for comparison.
CCCCCCCCCO[C@@H]1[C@@H](N)[C@@H](OCC(O)CO)O[C@H](CN)[C@H]1OCCCCCCCCC (mixture of isomers) | 89.7
C=CCO[C@H]1O[C@H](CN)[C@@H](OCCCCCCCCC)[C@H](OCCCCCCCCC)[C@H]1N | 91.4

Attention now shifts to the item below.
Prompt: Output viability at 24 h, 10 µM of CCCCCCCCCO[C@@H]1[C@@H](N)[C@@H](OCC(O)CNCCCO)O[C@H](CN)[C@H]1OCCCCCCCCC (mixture of isomers)
Response: 89.9

Hey, just so you know, these numbers are from ChEMBL document CHEMBL3860087.
